- ASSAY_EXPLANATION: Distribution coefficient LogD
- Assay type: physicochemical
- ASSAY_CONDITIONS: octanol/water, pH 7.4; read-out: LogD, pH = 7.4
RESULT_TYPE: logD

> print(dat)
                                    compound  result.type  measured.number
 1  O=C1C=C(SCCO)C(=O)c2ccccc21 [compound 60]         logD             2.99
 2  O=C1C(Cl)=C(Nc2nccs2)C(=O)c2ccccc21 [compound 38]         logD              0.1
 3  CCCCCCCNC1=C(Cl)C(=O)c2ccccc2C1=O [compound 8]         logD             0.17
 4  CCCCC(=O)NC1=C(Cl)C(=O)c2ccccc2C1=O [compound 32]         logD             2.79
 5  CCCC(=O)NC1=C(Cl)C(=O)c2ccccc2C1=O [compound 31]         logD             2.03
 6  Cc1ccccc1NC1=C(Cl)C(=O)c2ccccc2C1=O [compound 40]         logD                0
 7  NC1=C(Cl)C(=O)c2ccccc2C1=O [compound 1, 2-chloro-3-amino-1,4-NQ]         logD             2.01
 8  O=C1C(Nc2ccccc2)=CC(=O)c2ncccc21 [compound 67, reference compound]         logD             3.45
 9  COCCNC1=C(Cl)C(=O)c2ccccc2C1=O [compound 21]         logD                0
10  CC(C)(C)NC1=C(Cl)C(=O)c2ccccc2C1=O [compound 13]         logD             0.52
